# testDescription: Liver microsomal metabolism experiment (metabolic stability)
# Format: in vitro ADME
# condition: pH 7.4; mouse liver microsomes 0.5 mg/mL, compound 1 μM
reportedProperty: half-life at 1 μM (h)
Numbers only, in h.

Recorded half-life at 1 μM, per entry:
CC1(C)CCC(CN2CCN(c3ccc(C(=O)NS(=O)(=O)c4ccc(NCC5CCOCC5)c([N+](=O)[O-])c4)c(Oc4cnc5[nH]ccc5c4)c3)CC2)=C(c2ccc(Cl)cc2)C1 [Venetoclax, reference compound] : 1.35
[2H]C([2H])(Nc1ccc(S(=O)(=O)NC(=O)c2ccc(N3CCN(CC4=C(c5ccc(Cl)cc5)CC(C)(C)CC4)CC3)cc2Oc2cnc3[nH]ccc3c2)cc1[N+](=O)[O-])C1CCOCC1 (single isomer, unassigned) : 1.25
[2H]C([2H])(Nc1ccc(S(=O)(=O)NC(=O)c2ccc(N3C([2H])([2H])C([2H])([2H])N(C([2H])([2H])C4=C(c5ccc(Cl)cc5)CC(C)(C)CC4)C([2H])([2H])C3([2H])[2H])cc2Oc2cnc3[nH]ccc3c2)cc1[N+](=O)[O-])C1CCOCC1 (single isomer, unassigned) : 5.11
[2H]C([2H])(C1=C(c2ccc(Cl)cc2)CC(C)(C)CC1)N1C([2H])([2H])C([2H])([2H])N(c2ccc(C(=O)NS(=O)(=O)c3ccc(NCC4CCOCC4)c([N+](=O)[O-])c3)c(Oc3cnc4[nH]ccc4c3)c2)C([2H])([2H])C1([2H])[2H] (single isomer, unassigned) : 1.12
[2H]C1([2H])N(CC2=C(c3ccc(Cl)cc3)CC(C)(C)CC2)C([2H])([2H])C([2H])([2H])N(c2ccc(C(=O)NS(=O)(=O)c3ccc(NCC4CCOCC4)c([N+](=O)[O-])c3)c(Oc3cnc4[nH]ccc4c3)c2)C1([2H])[2H] (single isomer, unassigned) : 1.52

// for each compound below, give its half-life at 1 μM
1. [2H]C([2H])(Nc1ccc(S(=O)(=O)NC(=O)c2ccc(N3C([2H])([2H])C([2H])([2H])N(CC4=C(c5ccc(Cl)cc5)CC(C)(C)CC4)C([2H])([2H])C3([2H])[2H])cc2Oc2cnc3[nH]ccc3c2)cc1[N+](=O)[O-])C1CCOCC1 (single isomer, unassigned)
2. [2H]C([2H])(C1=C(c2ccc(Cl)cc2)CC(C)(C)CC1)N1CCN(c2ccc(C(=O)NS(=O)(=O)c3ccc(NCC4CCOCC4)c([N+](=O)[O-])c3)c(Oc3cnc4[nH]ccc4c3)c2)CC1 (single isomer, unassigned)
3. [2H]C([2H])(Nc1ccc(S(=O)(=O)NC(=O)c2ccc(N3CCN(C([2H])([2H])C4=C(c5ccc(Cl)cc5)CC(C)(C)CC4)CC3)cc2Oc2cnc3[nH]ccc3c2)cc1[N+](=O)[O-])C1CCOCC1 (single isomer, unassigned)

1.3
4.07
2.38

====

# testDescription: Pharmacokinetic experiment in rats
# Type: in vivo, SD rat
# condition: rat, plasma, po; male SD rats, i.g., 3 mg/kg
I'd be grateful if you could share measured Tmax for these entries.
A complete answer gives the number and then names the unit.

[2H]C([2H])(Nc1ccc(S(=O)(=O)NC(=O)c2ccc(N3CCN(CC4=C(c5ccc(Cl)cc5)CC(C)(C)CC4)CC3)cc2Oc2cnc3[nH]ccc3c2)cc1[N+](=O)[O-])C1CCOCC1 (single isomer, unassigned) : 3.33 h

Record CC1(C)CCC(CN2CCN(c3ccc(C(=O)NS(=O)(=O)c4ccc(NCC5CCOCC5)c([N+](=O)[O-])c4)c(Oc4cnc5[nH]ccc5c4)c3)CC2)=C(c2ccc(Cl)cc2)C1 [Venetoclax, reference compound] . Reported Tmax: 3.33 h
